# Tested on: MCF7
# ASSAY_NOTES: Cytotoxicity against human MCF7 cells after 48 hrs by SRB assay
# Type: functional, cell-based
# APPLIED_CONDITIONS: MCF7, 48 h
OBSERVABLE: pIC50
// field semantics: pIC50 = negative decimal log of concentration (mol/L)

Here are 3 compounds together with their reported answers.
O=C(c1cccnc1)c1cccc(Cl)c1O    4.57
CC(=O)O[C@H]1C(=O)[C@@]2(C)[C@H]([C@H](OC(=O)c3ccccc3)[C@]3(O)C[C@H](OC(=O)[C@H](O)[C@@H](NC(=O)c4ccccc4)c4ccccc4)C(C)=C1C3(C)C)[C@]1(OC(C)=O)CO[C@@H]1C[C@@H]2O [PACLITAXEL]    6.70
Cc1ccc(O)c(C(=O)c2cccnc2)c1    5.09

Consider the record given below.
Bench note, MCF7: `O=C(c1cccnc1)c1cc(Br)ccc1O` , pIC50 reads 4.27

Source listed as ChEMBL document CHEMBL3352304.
